- tested.on: γ-secretase (Homo sapiens)
- protocol: GSM activity of compounds that bind Aβ or Aβ amyloid (cell-based or cell-free γ-secretase assays, FIG. 12)
- condition.parameters: two doses (10 and 100 μM)
quantity.kind: GSM activity

These recorded examples may help you get a feel for the data.
{"molecule": "O=C1NC(=O)c2cc(Nc3ccccc3)c(Nc3ccccc3)cc21 [DAPH, 4,5-dianilinophthalimide]", "measurement": "Aβ42-raising"}
{"molecule": "COc1ccc2[nH]cc(CCNC(C)=O)c2c1", "measurement": "did not act as GSMs"}
{"molecule": "O=C(O)c1cc(C=Cc2ccc(C=Cc3ccc(O)c(C(=O)O)c3)cc2)ccc1O", "measurement": "Aβ42-lowering"}
{"molecule": "CNc1ccc(-c2nc3ccccc3s2)cc1", "measurement": "did not act as GSMs"}
{"molecule": "Clc1ccc(C(c2ccc(Cl)cc2)n2cc[n+](CC(OCc3ccc(Cl)cc3Cl)c3ccc(Cl)cc3Cl)c2)cc1 (stereo not drawn)", "measurement": "Aβ42-raising"}

Now turn to the next molecule.
Task: Hello, I am looking for reported GSM activity with γ-secretase (Homo sapiens) for "O=S(=O)(O)c1cccc2c(-c3ccc(Nc4ccccc4)c4c(S(=O)(=O)O)cccc34)ccc(Nc3ccccc3)c12" . Could you help?
Output: Aβ42-lowering

====

- Tested on: Human H4 neuroglioma cells expressing wild-type APP695 protein or CTF105
- protocol: Cell-based screens for amyloid-β modulation (H4 cells, ELISA)
- condition.parameters: H4 cells expressing APP
- From the text: Photoaffinity labelling. All experiments used the following general protocol. […] Cell-based screens for amyloid-β modulation. […] Statistical analysis.

{"smiles.repr": "O=C(O)c1cc(C=Cc2ccc(C=Cc3ccc(O)c(C(=O)O)c3)cc2)ccc1O", "Aβ42 levels": "decrease"}
{"smiles.repr": "O=C(O)c1cc(/N=N/c2ccc(-c3ccc(/N=N/c4ccc(O)c(C(=O)O)c4)cc3)cc2)ccc1O", "Aβ42 levels": "decrease"}
{"smiles.repr": "O=S(=O)(O)c1cccc2c(-c3ccc(Nc4ccccc4)c4c(S(=O)(=O)O)cccc34)ccc(Nc3ccccc3)c12", "Aβ42 levels": "decrease"}

====

- tested.on: Aβ(1-42) (Homo sapiens, UniProt P05067)
- Sequence (P05067 672-713 limits assumed): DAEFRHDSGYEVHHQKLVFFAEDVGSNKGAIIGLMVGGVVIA
quantity.kind: Kd (µM)
Report as a plain number; the unit µM is understood.

Task: What value of measured Kd is listed for O=C(O)c1cc(C=Cc2ccc(C=Cc3ccc(O)c(C(=O)O)c3)cc2)ccc1O [X-34] ?
Output: 12.1

====

- tested.on: γ-secretase (Homo sapiens)
- protocol: Cell-free in vitro γ-secretase assay
- Type: biochemical

{"smiles.repr": "O=C(O)c1cc(/N=N/c2ccc(-c3ccc(/N=N/c4ccc(O)c(C(=O)O)c4)cc3)cc2)ccc1O", "Aβ42 in cell-free γ-secretase assay": "lowered Aβ42 selectively"}
{"smiles.repr": "Nc1c(/N=N/c2ccc(-c3ccc(/N=N/c4cc(S(=O)(=O)O)c5ccccc5c4N)cc3)cc2)cc(S(=O)(=O)O)c2ccccc12", "Aβ42 in cell-free γ-secretase assay": "lowered Aβ42 selectively"}
